This collection of values is drawn from the supplement of paper PMC12669032.

# System: Akkermansia muciniphila
# runDescription: growth AUC relative to DMSO control (median of replicates) (fraction); higher = more growth (less inhibition), active = hit call of the paper
# conditionSet: 20 µM; 24 h
growth AUC by entry:
quantityKind: growth AUC

[[record]]
compound = "CNC(=O)Oc1cc(C)c(S(C)=O)c(C)c1 (stereo not drawn)"
targetundertest = "Akkermansia muciniphila"
valuereported = 0.977

[[record]]
compound = "CCOP(=S)(OCC)Oc1cnccn1"
targetundertest = "Akkermansia muciniphila"
valuereported = 0.892

[[record]]
compound = "O=P(O)(O)CCCl"
targetundertest = "Akkermansia muciniphila"
valuereported = 1.07

[[record]]
compound = "CC(C)=CC1C(C(=O)OC(C#N)c2cccc(Oc3ccccc3)c2)C1(C)C (mixture of isomers)"
targetundertest = "Akkermansia muciniphila"
valuereported = 0.826

[[record]]
compound = "CC/C(=N\\OC/C=C/Cl)C1=C(O)CC(C2CCOCC2)CC1=O (stereo not drawn)"
targetundertest = "Akkermansia muciniphila"
valuereported = 1.04

[[record]]
compound = "CNC(=O)Oc1ccccc1OC(CCl)OC (stereo not drawn)"
targetundertest = "Akkermansia muciniphila"
valuereported = 1.17

[[record]]
compound = "NCCO.O=C(O)c1nc(Cl)ccc1Cl"
targetundertest = "Akkermansia muciniphila"
valuereported = 1.02

[[record]]
compound = "CCNc1nc(NC(C)(C)C)nc(SC)n1"
targetundertest = "Akkermansia muciniphila"
valuereported = 1.02

[[record]]
compound = "Cc1cnc(C2=NC(C)(C(C)C)C(=O)N2)c(C(=O)O)c1 (stereo not drawn)"
targetundertest = "Akkermansia muciniphila"
valuereported = 1.05

[[record]]
compound = "CCOC(=O)CC(SP(=O)(OC)OC)C(=O)OCC (stereo not drawn)"
targetundertest = "Akkermansia muciniphila"
valuereported = 1.24

[[record]]
compound = "COC(=O)N(C(=O)N1CO[C@@]2(C(=O)OC)Cc3cc(Cl)ccc3C2=N1)c1ccc(OC(F)(F)F)cc1"
targetundertest = "Akkermansia muciniphila"
valuereported = 0.961

[[record]]
compound = "OC[C@@H](O)[C@H]1O[C@@H]2O[C@H](C(Cl)(Cl)Cl)O[C@@H]2[C@H]1O (mixture of isomers)"
targetundertest = "Akkermansia muciniphila"
valuereported = 0.979

[[record]]
compound = "CCOc1cc(Oc2ccc(C(F)(F)F)cc2Cl)ccc1[N+](=O)[O-]"
targetundertest = "Akkermansia muciniphila"
valuereported = 1.08

[[record]]
compound = "CC1(C)C(C(=O)OC(C#N)c2cccc(Oc3ccccc3)c2)C1(C)C (stereo not drawn)"
targetundertest = "Akkermansia muciniphila"
valuereported = 0.879

[[record]]
compound = "O=C(NC(=O)c1c(F)cccc1F)Nc1cc(Cl)c(OC(F)(F)C(F)C(F)(F)F)cc1Cl (stereo not drawn)"
targetundertest = "Akkermansia muciniphila"
valuereported = 0.997

[[record]]
compound = "COP(=S)(OC)Oc1nc(Cl)c(Cl)cc1Cl"
targetundertest = "Akkermansia muciniphila"
valuereported = 1.06

[[record]]
compound = "N#CC(CCc1ccc(Cl)cc1)(Cn1cncn1)c1ccccc1 (stereo not drawn)"
targetundertest = "Akkermansia muciniphila"
valuereported = 1.02

[[record]]
compound = "Cc1cc(Cl)ccc1N=CN(C)C.Cl"
targetundertest = "Akkermansia muciniphila"
valuereported = 1.06

[[record]]
compound = "C[C@@H](Oc1ccc(Cl)cc1Cl)C(=O)O"
targetundertest = "Akkermansia muciniphila"
valuereported = 1.14

[[record]]
compound = "CCCSP(=S)(OCC)Oc1ccc(Cl)cc1Cl (stereo not drawn)"
targetundertest = "Akkermansia muciniphila"
valuereported = 1.06

[[record]]
compound = "CNC(=O)O/N=C(\\C)C(C)S(C)(=O)=O (stereo not drawn)"
targetundertest = "Akkermansia muciniphila"
valuereported = 1.15

[[record]]
compound = "Cc1ccc(NC(=O)N(C)C)cc1Cl"
targetundertest = "Akkermansia muciniphila"
valuereported = 0.946

[[record]]
compound = "CC(=O)O.CC(=O)O.CC(=O)O.NC(N)=NCCCCCCCCNCCCCCCCCN=C(N)N"
targetundertest = "Akkermansia muciniphila"
valuereported = 0.692


###

# Test system: Clostridium difficile
# runDescription: growth AUC relative to DMSO control (median of replicates) (fraction); higher = more growth (less inhibition), active = hit call of the paper;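 active = AUC reduced over 20% with Padj below 0.05 in at least 2 of 3 replicates; inactive = otherwise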
# conditionSet: 20 µM; 24 h
Outcomes: active, inactive

[[record]]
compound = "CC(Cl)(Cl)C(=O)O"
classname = "inactive"

[[record]]
compound = "O=c1[nH]c2c(c(=O)n1C1CCCCC1)CCC2"
classname = "inactive"

[[record]]
compound = "NCCO.O=C(O)c1nc(Cl)ccc1Cl"
classname = "inactive"

[[record]]
compound = "O.[Br-].[Br-].c1cc[n+]2c(c1)-c1cccc[n+]1CC2"
classname = "inactive"

[[record]]
compound = "CNC(=O)Oc1cc(C)c(S(C)=O)c(C)c1 (centres undefined)"
classname = "inactive"

[[record]]
compound = "CCNc1nc(NC(C)(C)C)nc(SC)n1"
classname = "inactive"

[[record]]
compound = "CSc1nnc(C(C)(C)C)c(=O)n1N"
classname = "inactive"

[[record]]
compound = "CC(C)NC(=O)N1CC(=O)N(c2cc(Cl)cc(Cl)c2)C1=O"
classname = "inactive"

[[record]]
compound = "CCCCN(CCCC)N=O"
classname = "inactive"

[[record]]
compound = "Cc1nc(N(C)C)nc(OC(=O)N(C)C)c1C"
classname = "inactive"

[[record]]
compound = "CCOP(=O)(OCC)OCC"
classname = "inactive"

[[record]]
compound = "c1ccc(-c2ccccc2)cc1"
classname = "inactive"

[[record]]
compound = "CCCN(CCC)C(=O)SCc1ccccc1"
classname = "inactive"

[[record]]
compound = "COC(=O)C(C)Oc1ccc(Oc2ccc(Cl)cc2Cl)cc1 (centres undefined)"
classname = "inactive"

[[record]]
compound = "C[C@@H](Oc1ccc(Oc2nc3ccc(Cl)cc3o2)cc1)C(=O)O"
classname = "inactive"

[[record]]
compound = "COC(=O)C(Cl)Cl"
classname = "inactive"

[[record]]
compound = "CN(C)C(=O)Nc1cccc(C(F)(F)F)c1"
classname = "inactive"

[[record]]
compound = "CC(C)OP(=O)(OC(C)C)SCc1ccccc1"
classname = "inactive"

[[record]]
compound = "C=C(C)[C@H]1Cc2c(ccc3c2O[C@@H]2COc4cc(OC)c(OC)cc4[C@@H]2C3=O)O1"
classname = "inactive"

[[record]]
compound = "CCOc1ccc(C(C)(C)COCc2cccc(Oc3ccccc3)c2)cc1"
classname = "inactive"

[[record]]
compound = "CCCOc1nn(C(=O)[N-]S(=O)(=O)c2ccccc2C(=O)OC)c(=O)n1C.[Na+]"
classname = "inactive"

[[record]]
compound = "COc1ccc(-c2ccccc2)cc1NNC(=O)OC(C)C"
classname = "inactive"

[[record]]
compound = "CCCCC(O)(Cn1cncn1)c1ccc(Cl)cc1Cl (centres undefined)"
classname = "inactive"

[[record]]
compound = "COC(=O)c1ccccc1CS(=O)(=O)NC(=O)Nc1nc(OC)cc(OC)n1"
classname = "inactive"

[[record]]
compound = "CCOP(=S)(Oc1cnc(C(C)(C)C)nc1)OC(C)C (centres undefined)"
classname = "inactive"

[[record]]
compound = "NCP(=O)(O)O"
classname = "inactive"

[[record]]
compound = "Cc1nc(N(C)C=O)nc(OC(=O)N(C)C)c1C"
classname = "inactive"

[[record]]
compound = "Nc1ccc(Cl)cc1Cl"
classname = "inactive"

[[record]]
compound = "N#Cc1sc2c(=O)c3ccccc3c(=O)c=2sc1C#N"
classname = "inactive"

[[record]]
compound = "CCS(=O)c1c(C#N)nn(-c2c(Cl)cc(C(F)(F)F)cc2Cl)c1N (centres undefined)"
classname = "inactive"

[[record]]
compound = "COCCN(C(=O)CCl)c1c(C)cccc1C"
classname = "inactive"

[[record]]
compound = "CO/N=C(/C(=O)OC)c1ccccc1COc1ccccc1C"
classname = "inactive"

[[record]]
compound = "Cc1c(F)c(F)c(COC(=O)[C@@H]2[C@H](/C=C(\\Cl)C(F)(F)F)C2(C)C)c(F)c1F (mixture of isomers)"
classname = "inactive"

[[record]]
compound = "ClC1=C(Cl)C2(Cl)C3COCC3C1(Cl)C2(Cl)Cl (centres undefined)"
classname = "inactive"

[[record]]
compound = "CN(C)c1nc(=O)n(C2CCCCC2)c(=O)n1C"
classname = "inactive"

[[record]]
compound = "C[C@@H]1C[C@@H]([C@H](O)CC2CC(=O)NC(=O)C2)C(=O)[C@@H](C)C1"
classname = "inactive"

[[record]]
compound = "CS/C(C)=N/OC(=O)N(C)SN(C)C(=O)O/N=C(\\C)SC"
classname = "inactive"

[[record]]
compound = "CCSCCSP(=S)(OC)OC"
classname = "inactive"

[[record]]
compound = "Oc1ccc(Cl)cc1Cc1cc(Cl)ccc1O"
classname = "active"

[[record]]
compound = "Oc1c(Br)cc(Br)cc1Br"
classname = "inactive"

[[record]]
compound = "CNC(=O)O/N=C/C(C)(C)S(C)=O (centres undefined)"
classname = "inactive"

[[record]]
compound = "CNC(=O)CSP(=S)(OC)OC"
classname = "inactive"

[[record]]
compound = "CC(C)N(Cc1ccccc1)C(=O)C(C)(C)C"
classname = "inactive"

[[record]]
compound = "CCc1cccc(C)c1N(C(=O)CCl)[C@@H](C)COC"
classname = "inactive"

[[record]]
compound = "Nc1nc(N)nc(N)n1"
classname = "inactive"

[[record]]
compound = "CC/C(=N\\OC/C=C/Cl)C1=C(O)CC(C2CCOCC2)CC1=O (centres undefined)"
classname = "inactive"

[[record]]
compound = "CCCOCC(=Nc1ccc(Cl)cc1C(F)(F)F)n1ccnc1"
classname = "inactive"

[[record]]
compound = "CCCCCCCCSC(=O)Oc1cc(Cl)nnc1-c1ccccc1"
classname = "inactive"

[[record]]
compound = "CCC(C)(C)C(=O)OC1=C(c2ccc(Cl)cc2Cl)C(=O)OC12CCCCC2"
classname = "inactive"

